Conditions: 288.15 K; 60000 kPa; Liquid; vibrating tube
measure_name: mass density (kg/m3)
Give the value, in units of kg/m3, as a plain number.

Consider the compound shown here: CCCCn1cc[n+](C)c1.F[B-](F)(F)F [1-butyl-3-methylimidazolium tetrafluoroborate] What is its recorded mass density?
1233.94

// repeat for CCn1cc[n+](C)c1.F[B-](F)(F)F [1-ethyl-3-methylimidazolium tetrafluoroborate] and report
1317.17

// repeat for CCCCCCCC[n+]1ccn(C)c1.F[B-](F)(F)F [1-methyl-3-octylimidazolium tetrafluoroborate] and report
1137.81

// repeat for CCCCCCn1cc[n+](C)c1.F[B-](F)(F)F [1-hexyl-3-methylimidazolium tetrafluoroborate] and report
1178.4

---

Details: 298.15 K; 14000 kPa; Liquid; vibrating tube
mass density: recorded values
Give the value, in units of kg/m3, as a plain number.

Reference set, count: 2
compound="CCCCCCCC[n+]1ccn(C)c1.F[B-](F)(F)F [1-methyl-3-octylimidazolium tetrafluoroborate]" endpoint_unit=kg/m3 assay_value=1111.29
compound="CCCCCCn1cc[n+](C)c1.F[B-](F)(F)F [1-hexyl-3-methylimidazolium tetrafluoroborate]" endpoint_unit=kg/m3 assay_value=1152.19

Consider the compound shown here: CCCCn1cc[n+](C)c1.F[B-](F)(F)F [1-butyl-3-methylimidazolium tetrafluoroborate] What is its recorded mass density?
1208

// repeat for CCn1cc[n+](C)c1.F[B-](F)(F)F [1-ethyl-3-methylimidazolium tetrafluoroborate] and report
1291.53

---

Conditions: 313.15 K; 6000 kPa; Liquid; vibrating tube
measure_name: mass density (kg/m3)
Give the value, in units of kg/m3, as a plain number.

Reference set, count: 3
compound="CCCCn1cc[n+](C)c1.F[B-](F)(F)F [1-butyl-3-methylimidazolium tetrafluoroborate]" endpoint_unit=kg/m3 assay_value=1193.86
compound="CCCCCCn1cc[n+](C)c1.F[B-](F)(F)F [1-hexyl-3-methylimidazolium tetrafluoroborate]" endpoint_unit=kg/m3 assay_value=1138.14
compound="CCn1cc[n+](C)c1.F[B-](F)(F)F [1-ethyl-3-methylimidazolium tetrafluoroborate]" endpoint_unit=kg/m3 assay_value=1276.8

Proceeding to the next compound to report its mass density.
Consider the compound shown here: CCCCCCCC[n+]1ccn(C)c1.F[B-](F)(F)F [1-methyl-3-octylimidazolium tetrafluoroborate] What is its recorded mass density?
1097.28

---

Details: 293.15 K; 20000 kPa; Liquid; vibrating tube
mass density: recorded values
Give the value, in units of kg/m3, as a plain number.

molecule="CCCCCCCC[n+]1ccn(C)c1.F[B-](F)(F)F [1-methyl-3-octylimidazolium tetrafluoroborate]" assay_value=1117.38
molecule="CCn1cc[n+](C)c1.F[B-](F)(F)F [1-ethyl-3-methylimidazolium tetrafluoroborate]" assay_value=1297.8
molecule="CCCCCCn1cc[n+](C)c1.F[B-](F)(F)F [1-hexyl-3-methylimidazolium tetrafluoroborate]" assay_value=1158.32

Proceeding to the next molecule to report its mass density.
Consider the molecule shown here: CCCCn1cc[n+](C)c1.F[B-](F)(F)F [1-butyl-3-methylimidazolium tetrafluoroborate] What is its recorded mass density?
1214.19

---

Conditions: 318.15 K; 50000 kPa; Liquid; vibrating tube
mass density: recorded values
Give the value, in units of kg/m3, as a plain number.

Reference set, count: 3
compound="CCCCCCCC[n+]1ccn(C)c1.F[B-](F)(F)F [1-methyl-3-octylimidazolium tetrafluoroborate]" measure_name="mass density" assay_value=1115.21
compound="CCCCCCn1cc[n+](C)c1.F[B-](F)(F)F [1-hexyl-3-methylimidazolium tetrafluoroborate]" measure_name="mass density" assay_value=1155.3
compound="CCn1cc[n+](C)c1.F[B-](F)(F)F [1-ethyl-3-methylimidazolium tetrafluoroborate]" measure_name="mass density" assay_value=1291.92

Consider the compound shown here: CCCCn1cc[n+](C)c1.F[B-](F)(F)F [1-butyl-3-methylimidazolium tetrafluoroborate] What is its recorded mass density?
1210.05
